# Tested on: MRSA 18271
# Test Summary: Minimum inhibitory concentration (broth microdilution) and FIC index
# Type: cell-based, Staphylococcus aureus
# Condition: Table 3; 18271; Tellimagrandin II (40 μg/ml) +
# Protocol: A serial of twofold dilution of the tested antibiotics (oxacillin, erythromycin, ampicillin, kanamycin, levofoxacin, vancomycin and doxycycline) was perform by Broth microdilution method to a final concentration of 2-512 μg/mL. The bacterial overnight culture was collected and re-suspended in the Muller-Hilton (M-H) broth. An aliquot of cell suspension (OD600=0.1) was prepared. […] The […], […] and antagonism between two drugs was evaluated by the following formula: […]

Chemical Structure: CC[C@H]1OC(=O)[C@H](C)[C@@H](O[C@H]2C[C@@](C)(OC)[C@@H](O)[C@H](C)O2)[C@H](C)[C@@H](O[C@@H]2O[C@H](C)C[C@H](N(C)C)[C@H]2O)[C@](C)(O)C[C@@H](C)C(=O)[C@H](C)[C@@H](O)[C@]1(C)O
MIC: 512 µg/mL

Chemical Structure: Cc1onc(-c2ccccc2)c1C(=O)N[C@@H]1C(=O)N2[C@@H]1SC(C)(C)[C@@H]2C(=O)O
MIC: 16 µg/mL

Chemical Structure: CN[C@H](CC(C)C)C(=O)N[C@H]1C(=O)N[C@@H](CC(N)=O)C(=O)N[C@H]2C(=O)N[C@H]3C(=O)N[C@H](C(=O)N[C@H](C(=O)O)c4cc(O)cc(O)c4-c4cc3ccc4O)[C@H](O)c3ccc(c(Cl)c3)Oc3cc2cc(c3O[C@@H]2O[C@H](CO)[C@@H](O)[C@H](O)[C@H]2O[C@H]2C[C@](C)(N)[C@H](O)[C@H](C)O2)Oc2ccc(cc2Cl)[C@H]1O
MIC: 4 µg/mL

Chemical Structure: C[C@H]1c2cccc(O)c2C(=O)C2=C(O)[C@]3(O)C(=O)C(C(N)=O)=C(O)[C@@H](N(C)C)[C@@H]3[C@@H](O)[C@@H]21
MIC: 2 µg/mL

Chemical Structure: CC1(C)S[C@@H]2[C@H](NC(=O)[C@H](N)c3ccccc3)C(=O)N2[C@H]1C(=O)O
MIC: 16 µg/mL

Chemical Structure: C[C@H]1COc2c(N3CCN(C)CC3)c(F)cc3c(=O)c(C(=O)O)cn1c23
MIC: 512 µg/mL

* * *

# System: MSSA (Methicillin-susceptible Staphylococcus aureus)
# Test Summary: Minimum inhibitory concentration (broth microdilution) and FIC index
# Type: cell-based
# Condition: Table 3; MSSA; Tellimagrandin II (40 μg/ml) +
# Method: A serial of twofold dilution of the tested antibiotics (oxacillin, erythromycin, ampicillin, kanamycin, levofoxacin, vancomycin and doxycycline) was perform by Broth microdilution method to a final concentration of 2-512 μg/mL. The bacterial overnight culture was collected and re-suspended in the Muller-Hilton (M-H) broth. An aliquot of cell suspension (OD600=0.1) was prepared. […] The […], […] and antagonism between two drugs was evaluated by the following formula: […]
Listed here are molecules together with their documented FIC.
Metric Name: FIC

Chemical Structure: CC[C@H]1OC(=O)[C@H](C)[C@@H](O[C@H]2C[C@@](C)(OC)[C@@H](O)[C@H](C)O2)[C@H](C)[C@@H](O[C@@H]2O[C@H](C)C[C@H](N(C)C)[C@H]2O)[C@](C)(O)C[C@@H](C)C(=O)[C@H](C)[C@@H](O)[C@]1(C)O
Reported Measurement: 0.50
//
Chemical Structure: Cc1onc(-c2ccccc2)c1C(=O)N[C@@H]1C(=O)N2[C@@H]1SC(C)(C)[C@@H]2C(=O)O
Reported Measurement: 0.5
//
Chemical Structure: C[C@H]1COc2c(N3CCN(C)CC3)c(F)cc3c(=O)c(C(=O)O)cn1c23
Reported Measurement: 1.00
//
Chemical Structure: C[C@H]1c2cccc(O)c2C(=O)C2=C(O)[C@]3(O)C(=O)C(C(N)=O)=C(O)[C@@H](N(C)C)[C@@H]3[C@@H](O)[C@@H]21
Reported Measurement: 0.063
//
Chemical Structure: CC1(C)S[C@@H]2[C@H](NC(=O)[C@H](N)c3ccccc3)C(=O)N2[C@H]1C(=O)O
Reported Measurement: 0.50
